# Run Description: in vitro
# Type: in vitro ADME, bovine
# Assay Setup: serum
Result Type: metabolised at 18 h, 100 μM (%)
Reply numerically in %, unit not repeated.

Quick note, metabolised at 18 h, 100 μM for CC(C)C[C@H](NC(=O)[C@H](CO)NC(=O)[C@@H](NC(=O)[C@H](C)N)[C@@H](C)O)C(=O)N1CCC[C@H]1C(=O)N1CCC[C@H]1C(=O)N[C@@H](Cc1c[nH]cn1)C(=O)N[C@@H](CO)C(=O)N[C@@H](CO)C(=O)N[C@@H](CCC(N)=O)C(=O)N[C@@H](CO)C(=O)N1CCC[C@H]1C(=O)O landed at 25
